# Test system: PC-3 prostate
# procedure.summary: NCI tumour cell line growth inhibition, 48 h
Items are presented alongside their recorded TGI.
quantity.measured: TGI

molecule	quantity.measured	assay.value
CC(=O)CCN1CC2CN=NC2(C#N)C1 (stereo not drawn)	TGI	> 100 µM
C[N+](C)([O-])C12CC3CC(CC(C3)C1)C2	TGI	> 100 µM
COc1ccc([C@H]2c3[nH]c4ccccc4c3C[C@H]3C(=O)N(CCCCCCC(=O)NO)CC(=O)N23)cc1	TGI	> 33.3 µM
